Target: human V1a receptor (Homo sapiens (Human))
Sequence (P37288 whole entry): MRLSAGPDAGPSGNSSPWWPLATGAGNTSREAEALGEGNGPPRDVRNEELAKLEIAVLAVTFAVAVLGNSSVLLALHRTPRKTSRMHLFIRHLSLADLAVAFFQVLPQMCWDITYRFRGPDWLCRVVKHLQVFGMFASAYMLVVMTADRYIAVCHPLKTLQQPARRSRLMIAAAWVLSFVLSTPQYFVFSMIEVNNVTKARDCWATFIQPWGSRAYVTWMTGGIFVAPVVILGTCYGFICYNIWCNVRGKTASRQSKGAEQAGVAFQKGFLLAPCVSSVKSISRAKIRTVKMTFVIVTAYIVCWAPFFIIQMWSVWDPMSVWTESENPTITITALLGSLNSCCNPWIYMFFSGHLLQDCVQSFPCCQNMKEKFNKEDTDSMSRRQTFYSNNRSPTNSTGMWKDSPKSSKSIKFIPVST
Experiment: human V1a receptor binding studies (3H-Vasopressin, SPA beads)
Settings: membranes of HEK293 cells transiently transfected with human V1a receptor, Ki by Cheng-Prusoff
Procedure: The human V1a receptor was cloned by RT-PCR from total human liver RNA. The coding sequence was subcloned in an expression vector after sequencing to confirm the identity of the amplified sequence. […] Cell membranes were prepared from HEK293 cells transiently transfected with the expression vector and grown in 20 liter fermenters with the following protocol. […]
ENDPOINT: pKi hV1a

Cc1ccc2c(n1)C1(CCN(C3=NC(=O)C4(Cc5ccccc5C4)O3)CC1)OC2 ... 9.1
COc1ccc2c(c1)C1(CCN(C3=NC(=O)C4(Cc5ccccc5C4)O3)CC1)OC2=O ... 8.6
CC1(C)OC2(CCN(C3=NC(=O)C4(Cc5cccc(O)c5C4)O3)CC2)c2cccnc21 (stereo not shown) ... 9.3
Cc1cc2c(cc1C)CC1(C2)OC(N2CCC3(CC2)OCc2ccccc23)=NC1=O ... 7.1

###

Target: human V1a receptor (Homo sapiens (Human))
Test: human V1a receptor binding studies (3H-Vasopressin, SPA beads)
Settings: membranes of HEK293 cells transiently transfected with human V1a receptor, Ki by Cheng-Prusoff
ENDPOINT: pKi hV1a

O=C1N=C(N2CCC3(CC2)OCc2ccccc23)OC12Cc1ccc(F)cc1C2 (stereo not shown) [Example 30] ... 9.0
O=C1N=C(N2CCC3(CC2)OCc2cccnc23)OC12Cc1ccccc1C2 [Example 36] ... 8.6
Cc1ccc2c(c1)CC1(C2)OC(N2CCC3(CC2)OC(=O)c2ccccc23)=NC1=O (stereo not shown) [Example 22] ... 8.9
Cc1ccc2c(c1)C[C@@]1(C2)OC(N2CCC3(CC2)OC(=O)c2ccccc23)=NC1=O [Example 23] ... 7.3
CC1(C)OC2(CCN(C3=NC(=O)C4(Cc5ccccc5C4)O3)CC2)c2cccnc21 [Example 39] ... 9.1
O=C1OC2(CCN(C3=NC(=O)C4(Cc5ccc(O)cc5C4)O3)CC2)c2ccccc21 (stereo not shown) [Example 28] ... 8.4
O=C1OC2(CCN(C3=NC(=O)C4(CCc5ccccc5C4)O3)CC2)c2ccccc21 (stereo not shown) [Example 65] ... 8.8

###

Target: human V1a receptor (Homo sapiens (Human))
Assay: human V1a receptor binding studies (3H-Vasopressin, SPA beads)
Details: membranes of HEK293 cells transiently transfected with human V1a receptor, Ki by Cheng-Prusoff
ENDPOINT: pKi hV1a

Cc1ccc2c(c1)C[C@]1(C2)OC(N2CCC3(CC2)OC(=O)c2ccccc23)=NC1=O (stereo in doubt) [Example 24] ... 8.6
CC1(C)OC2(CCN(C3=NC(=O)C4(Cc5ccc(O)cc5C4)O3)CC2)c2cccnc21 (stereo not drawn) [Example 41] ... 8.9
COc1ccc2c(c1)CC1(C2)OC(N2CCC3(CC2)OC(C)(C)c2ncccc23)=NC1=O (stereo not drawn) [Example 40] ... 8.3
CC1(C)OC2(CCN(C3=NC(=O)C4(Cc5ccccc5C4)O3)CC2)c2ncccc21 [Example 38] ... 9.2
Cc1ccc2c(c1)CC1(C2)OC(N2CCC3(CC2)OCc2ccccc23)=NC1=O (stereo not drawn) [Example 21] ... 9.1
O=C1N=C(N2CCC3(CC2)OCc2ccccc23)OC12Cc1cnc(CCl)cc1C2 (stereo not drawn) [Example 57] ... 6.3
Cc1cccc2c1COC21CCN(C2=NC(=O)C3(Cc4ccccc4C3)O2)CC1 [Example 4] ... 8.2
Cc1cnc2c(c1)C1(CCN(C3=NC(=O)C4(Cc5ccccc5C4)O3)CC1)OC2=O [Example 53] ... 7.4
Cc1ccc2c(n1)C(=O)OC21CCN(C2=NC(=O)C3(Cc4ccccc4C3)O2)CC1 [Example 49] ... 7.0
O=C1OC2(CCN(C3=NC(=O)C4(Cc5ccccc5C4)O3)CC2)c2ccc(F)cc21 [Example 15] ... 8.9
Cc1ccc2c(n1)COC21CCN(C2=NC(=O)C3(Cc4ccccc4C3)O2)CC1 [Example 48] ... 7.9
O=C1N=C(N2CCC3(CC2)OCc2ccccc23)OC12Cc1cccnc1C2 (stereo not drawn) [Example 56] ... 8.2
O=C1OC2(CCN(C3=NC(=O)C4(CCCc5ccccc54)O3)CC2)c2ccccc21 (stereo not drawn) [Example 63] ... 6.7
COc1cccc2c1CC1(C2)OC(N2CCC3(CC2)OC(C)(C)c2ncccc23)=NC1=O (stereo not drawn) [Example 68] ... 8.1
COc1cc2c(cc1OC)C1(CCN(C3=NC(=O)C4(Cc5ccccc5C4)O3)CC1)OC2=O [Example 12] ... 7.5
COc1ccc2c(c1)C(=O)OC21CCN(C2=NC(=O)C3(Cc4ccccc4C3)O2)CC1 [Example 8] ... 8.5
O=C1N=C(N2CCC3(CC2)OCc2ccccc23)O[C@]12CCc1ccccc12 [Example 19] ... 7.6
O=C1OC2(CCN(C3=NC(=O)C4(Cc5ccccc5C4)O3)CC2)c2c(F)cccc21 [Example 16] ... 8.7
COc1cc2c(cc1OC)CC1(C2)OC(N2CCC3(CC2)OC(=O)c2ccccc23)=NC1=O [Example 32] ... 6.4
O=C1OC2(CCN(C3=NC(=O)C4(Cc5cc(F)c(F)cc5C4)O3)CC2)c2ccccc21 [Example 35] ... 8.9
O=C1OC2(CCN(C3=NC(=O)C4(Cc5ccccc5C4)O3)CC2)c2cc(Cl)ccc21 [Example 17] ... 8.6
CC1(C)OC2(CCN(C3=NC(=O)C4(Cc5ccccc5C4)O3)CC2)c2ccc(O)nc21 [Example 72] ... 8.5
O=C1OC2(CCN(C3=NC(=O)C4(Cc5ccccc5C4)O3)CC2)c2ccc(O)cc21 [Example 9] ... 9.7
Cc1ccc2c(c1)C(=O)OC21CCN(C2=NC(=O)C3(Cc4ccccc4C3)O2)CC1 [Example 6] ... 8.8
COc1ccc2c(c1)CC1(C2)OC(N2CCC3(CC2)OC(=O)c2ccccc23)=NC1=O (stereo not drawn) [Example 27] ... 7.7
O=C1N=C(N2CCC3(CC2)OCc2ccccc23)O[C@@]12CCc1ccccc12 [Example 20] ... 6.6
Cc1cnc2c(c1)COC21CCN(C2=NC(=O)C3(Cc4ccccc4C3)O2)CC1 [Example 44] ... 8.7
O=C1N=C(N2CCC3(CC2)OCc2ccccc23)OC12Cc1cc(F)c(F)cc1C2 [Example 34] ... 9.4
O=C1OC2(CCN(C3=NC(=O)C4(Cc5ccccc5C4)O3)CC2)c2cnc(Cl)cc21 [Example 54] ... 7.4
Cc1cc2c(cc1C)CC1(C2)OC(N2CCC3(CC2)OC(=O)c2ccccc23)=NC1=O [Example 26] ... 6.4
O=C1N=C(N2CCC3(CC2)OCc2ccccc23)OC12Cc1cnc(C(F)F)cc1C2 (stereo not drawn) [Example 60] ... 7.7
O=C1OC2(CCN(C3=NC(=O)C4(Cc5cc(O)c(O)cc5C4)O3)CC2)c2ccccc21 [Example 33] ... 6.7
Cc1ccc2c(n1)C1(CCN(C3=NC(=O)C4(Cc5ccccc5C4)O3)CC1)OC2=O [Example 43] ... 8.3
